- Tested on: HCC-44
- assay-protocol: relative viability (nuclei count vs DMSO), 5 days (fraction); higher = more cells survive
- test-settings: first compound 8 µM
Give relative viability for every item shown.

O=c1[nH]c2ccccc2n1C1CCN(CCCC(c2ccc(F)cc2)c2ccc(F)cc2)CC1 [Pimozide] + CC(C)C[C@H](NC(=O)[C@H](Cc1ccccc1)NC(=O)c1cnccn1)B(O)O [Bortezomib] (partner 0.002 µM) = 0.877
O=c1[nH]c2ccccc2n1C1CCN(CCCC(c2ccc(F)cc2)c2ccc(F)cc2)CC1 [Pimozide] + O=C(c1cc(Cc2n[nH]c(=O)c3ccccc23)ccc1F)N1CCN(C(=O)C2CC2)CC1 [Olaparib] (partner 8 µM) = 0.931
O=c1[nH]c2ccccc2n1C1CCN(CCCC(c2ccc(F)cc2)c2ccc(F)cc2)CC1 [Pimozide] + Nc1nc2[nH]cc(CCc3ccc(C(=O)N[C@@H](CCC(=O)O)C(=O)O)cc3)c2c(=O)[nH]1 [Pemetrexed] (partner 0.2 µM) = 0.577

Next compound, relative viability to be filled in.
Can you share its relative viability? I mean this compound: O=c1[nH]c2ccccc2n1C1CCN(CCCC(c2ccc(F)cc2)c2ccc(F)cc2)CC1 [Pimozide] + C[C@]1(O)C[C@@H](c2nc(-c3ccc4ccc(-c5ccccc5)nc4c3)c3c(N)nccn32)C1 [Linsitinib] (partner 1 µM)
0.685
